The following molecules are shown together with reported Extinction coefficient ε values.
Assay: Spectral properties: absolute quantum yield, extinction coefficient, brightness
Assay type: physicochemical
Conditions: buffer

Take a look at these entries with their results.
| smiles | Extinction coefficient ε |
| --- | --- |
| CN(C)c1ccc2c(c1)[Si](C)(C)c1cc(N(C)C)ccc1C21OC(=O)c2ccccc21 | 120 ± 22 M-1cm-1 × 103 |
| CN(C)c1ccc2c(-c3ccccc3C(=O)[O-])c3ccc(N(C)C)cc3[o+]c2c1 | 089 ± 11 M-1cm-1 × 103 |
| O=C1OC2(c3ccc(N4CCC4)cc3Oc3cc(N4CCC4)ccc32)c2ccccc21 | 101 ± 08 M-1cm-1 × 103 |

Query: Consider the molecule C[Si]1(C)c2cc(N3CCC3)ccc2C2(OC(=O)c3ccccc32)c2ccc(N3CCC3)cc21 . State its measured Extinction coefficient ε.
Reply: 106 ± 24 M-1cm-1 × 103

----------
Molecular target: variant 2
Construct: Rho-tag background, loop2 library hit
Test: Fluorescence intensity titration of dye (not given; JF646 by comparison with the text) with serial protein dilutions, 50 mM HEPES, 50 mM NaCl, pH 7.3 with BSA, 25 °C, n at least 3.
Assay type: binding
Settings: SD, n = 3; read-out: KD [M] (Supplementary Table 10, replicates)
measureName: Kd
Quick note: unit goes after the number.

Query: Consider the compound C[Si]1(C)c2cc(N3CCC3)ccc2C2(OC(=O)c3ccccc32)c2ccc(N3CCC3)cc21 [JF646, Janelia Fluor 646 (SiR derivative)] . State its measured Kd.
Reply: 9.1e-08 M

----------
Biological target: SiR-tag
Construct: 2 + PROSS8 background combined with P57M/F58Y/R60L and G63N/F64K/D65N/M66H; His10-TEV
Experiment: Fluorescence intensity titration of 20 nM SiR with serial protein dilutions, 50 mM HEPES, 50 mM NaCl, pH 7.3 with BSA, 25 °C, 4 independent measurements.
Assay type: binding
Settings: read-out: K D (SiR), SiR-tag; SD, n = 4
measureName: pKd
# reply with the number alone; pKd is -log10 of concentration in mol/L

Query: Consider the molecule CN(C)c1ccc2c(c1)[Si](C)(C)c1cc(N(C)C)ccc1C21OC(=O)c2ccccc21 [SiR, silicon rhodamine] . State its measured pKd.
Reply: 7.32

----------
Target: Rho-tag (Chlorobaculum tepidum, UniProt Q8KFZ1, A66M/D121K/D126E/E36V/E70D/F125Y/F62Y/G107D/G67E/H40T/K51V/M64F/N138A/Q25R/S152V/S33N/S65D/V17Q/V87I)
Construct: gene CT0179; His10-TEV, recombinant from E. coli
Sequence (Q8KFZ1 entry or part of it with the stated changes): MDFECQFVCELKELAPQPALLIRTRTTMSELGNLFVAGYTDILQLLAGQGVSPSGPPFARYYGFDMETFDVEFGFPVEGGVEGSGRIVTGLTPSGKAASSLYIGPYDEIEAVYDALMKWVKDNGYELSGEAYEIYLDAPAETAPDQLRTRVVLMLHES
Assay: Fluorescence polarization at constant 20 nM TMR-linked ligand with serial Rho-tag dilutions (0-200 uM), pH 7.3, 25 °C, three independent measurements.
Format: binding
Conditions: SD, n = 3
measureName: Kd (µM)
Dear colleague, please return just the value in µM, with no unit written.

Query: Consider the molecule CN(C)c1ccc2c(-c3cc(C(=O)NCCOCCOCCCCCCCl)ccc3C(=O)[O-])c3ccc(=[N+](C)C)cc-3oc2c1 . State its measured Kd.
Reply: 9.8

----------
Biological target: Rho-tag (Chlorobaculum tepidum, UniProt Q8KFZ1, A66M/D121K/D126E/E36V/E70D/F125Y/F62Y/G107D/G67E/H40T/K51V/M64F/N138A/Q25R/S152V/S33N/S65D/V17Q/V87I)
Construct: gene CT0179; His10-TEV, recombinant from E. coli
Assay: Fluorescence intensity titration of SiR with serial Rho-tag dilutions, 50 mM HEPES, 50 mM NaCl, pH 7.3 with BSA, 25 °C.
Format: binding
Details: SD, n = 3
measureName: pKd
# reply with the number alone; pKd is -log10 of concentration in mol/L

Query: Consider the compound CN(C)c1ccc2c(c1)[Si](C)(C)c1cc(N(C)C)ccc1C21OC(=O)c2ccccc21 [SiR, silicon rhodamine] . State its measured pKd.
Reply: 5.19

Value source: paper PMC12814168
